# system: [GSPT1]-[compound of formula (I)]-[CRBN/DDB1] complex (Homo sapiens, UniProt P15170+Q96SW2)
# Sequence (P15170 whole entry): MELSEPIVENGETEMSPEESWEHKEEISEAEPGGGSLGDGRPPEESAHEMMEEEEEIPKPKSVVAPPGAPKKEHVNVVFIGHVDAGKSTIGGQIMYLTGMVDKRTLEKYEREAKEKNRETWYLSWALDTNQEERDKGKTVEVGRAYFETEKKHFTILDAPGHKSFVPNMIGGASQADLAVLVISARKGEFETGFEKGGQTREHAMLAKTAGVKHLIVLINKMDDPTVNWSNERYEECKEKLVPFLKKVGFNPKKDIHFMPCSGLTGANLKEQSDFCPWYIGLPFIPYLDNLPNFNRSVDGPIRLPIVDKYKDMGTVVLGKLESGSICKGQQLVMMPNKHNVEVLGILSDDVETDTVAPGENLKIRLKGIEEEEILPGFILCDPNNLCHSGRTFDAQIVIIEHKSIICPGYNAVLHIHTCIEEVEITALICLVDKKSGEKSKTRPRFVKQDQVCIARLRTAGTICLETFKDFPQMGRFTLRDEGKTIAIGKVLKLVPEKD
# Sequence (Q96SW2 whole entry): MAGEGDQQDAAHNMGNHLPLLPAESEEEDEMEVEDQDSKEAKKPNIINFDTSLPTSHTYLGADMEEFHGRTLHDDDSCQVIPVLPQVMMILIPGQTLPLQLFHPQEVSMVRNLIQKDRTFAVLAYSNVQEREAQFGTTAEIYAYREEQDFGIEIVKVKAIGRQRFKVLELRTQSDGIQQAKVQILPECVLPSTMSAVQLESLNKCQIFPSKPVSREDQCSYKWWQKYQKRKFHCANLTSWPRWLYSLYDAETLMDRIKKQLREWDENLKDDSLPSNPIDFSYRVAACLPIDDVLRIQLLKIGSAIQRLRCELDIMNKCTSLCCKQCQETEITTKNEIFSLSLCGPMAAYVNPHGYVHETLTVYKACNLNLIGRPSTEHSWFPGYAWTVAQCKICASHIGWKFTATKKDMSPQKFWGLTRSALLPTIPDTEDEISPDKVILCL
# Sequence (Q16531 whole entry partner): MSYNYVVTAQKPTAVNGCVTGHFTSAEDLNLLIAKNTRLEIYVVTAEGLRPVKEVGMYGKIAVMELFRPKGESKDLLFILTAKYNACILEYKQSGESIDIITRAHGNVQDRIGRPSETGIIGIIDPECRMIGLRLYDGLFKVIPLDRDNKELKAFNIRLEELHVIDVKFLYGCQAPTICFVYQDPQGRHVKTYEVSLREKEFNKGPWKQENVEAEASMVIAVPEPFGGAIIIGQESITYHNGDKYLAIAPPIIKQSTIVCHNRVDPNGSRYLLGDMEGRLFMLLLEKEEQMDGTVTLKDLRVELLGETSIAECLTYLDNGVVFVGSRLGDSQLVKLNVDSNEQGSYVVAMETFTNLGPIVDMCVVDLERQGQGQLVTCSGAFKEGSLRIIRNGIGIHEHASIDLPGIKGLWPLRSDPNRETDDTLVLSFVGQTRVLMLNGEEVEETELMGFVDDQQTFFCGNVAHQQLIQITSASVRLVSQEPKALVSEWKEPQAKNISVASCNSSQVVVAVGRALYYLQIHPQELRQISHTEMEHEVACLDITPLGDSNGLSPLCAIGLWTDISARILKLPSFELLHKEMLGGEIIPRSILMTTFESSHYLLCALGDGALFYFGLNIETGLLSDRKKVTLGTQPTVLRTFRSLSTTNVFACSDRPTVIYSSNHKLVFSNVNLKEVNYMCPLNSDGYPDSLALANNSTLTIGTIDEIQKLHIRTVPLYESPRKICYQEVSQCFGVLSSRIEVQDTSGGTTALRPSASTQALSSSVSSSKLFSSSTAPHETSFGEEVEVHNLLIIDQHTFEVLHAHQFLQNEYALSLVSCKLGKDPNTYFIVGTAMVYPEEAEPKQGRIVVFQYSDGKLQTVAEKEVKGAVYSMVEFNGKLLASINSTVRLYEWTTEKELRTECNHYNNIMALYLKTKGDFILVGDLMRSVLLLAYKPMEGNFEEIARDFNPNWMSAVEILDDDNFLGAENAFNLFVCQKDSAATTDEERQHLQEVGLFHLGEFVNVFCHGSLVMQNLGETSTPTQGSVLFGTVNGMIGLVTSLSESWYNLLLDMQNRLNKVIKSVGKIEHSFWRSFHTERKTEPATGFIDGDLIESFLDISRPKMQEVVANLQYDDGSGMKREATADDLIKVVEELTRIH
# test-details: HTRF ternary complex assay (GSPT1)
# Assay type: binding
# test-settings: read-out: HTRF ternary complex Average pEC50 by molecule (converted)
recorded-metric: EC50

Below are worked cases with known answers.
{"compound": "Cc1nc2cc(COC(=O)Nc3ccc4c(c3)OCCO4)ccc2cc1C1CCC(=O)NC1=O (stereo not shown)", "EC50": "0.316 to 3.16 µM"}
{"compound": "Cc1ccc(-c2nnc(NCc3ccc4cc(C5CCC(=O)NC5=O)c(C)nc4c3)o2)cc1Cl (stereo not shown)", "EC50": "> 3.16 µM"}
{"compound": "Cc1ccc(NC(=O)OCc2ccc3cc([C@H]4CCC(=O)NC4=O)c(C)nc3c2)cc1Cl", "EC50": "0.316 to 3.16 µM"}

Then there is this compound:
# EC50 (compound: Cc1nc2cc(COC(=O)NC3CCN(c4ccccc4)CC3)ccc2cc1C1CCC(=O)NC1=O (stereo not shown) ) is > 3.16 µM

* * *

Exercise: for every item that follows, state its recorded pKi.
# system: CRBN/DDB1 protein complex (Homo sapiens, UniProt Q96SW2)
# Sequence (Q96SW2 whole entry, species assumed): as the sequence (Q96SW2 whole entry) above
# Sequence (Q16531 whole entry partner, species assumed): as the sequence (Q16531 whole entry partner) above
# test-details: CRBN displacement TR-FRET assay
# test-settings: Thalidomide-Red tracer, 6×His-CRBN/DDB1; read-out: CRBN binding Ki
pKi: −log10 of the molar value.

Here are 6 molecules. What values of pKi were reported for them?
1. Cc1ccc(NC(=O)NCc2ccc3nc(C)c(N4CCC(=O)NC4=O)cc3c2)cc1Cl
2. Cc1ccc(Nc2c(NCc3ccc4cc(C5CCC(=O)NC5=O)c(C)nc4c3)c(=O)c2=O)cc1Cl (stereo not shown)
3. Cc1ccc(NC(=O)OCc2ccc3cc(C4CCC(=O)NC4=O)c(C)nc3c2)c(Cl)c1Cl (stereo not shown)
4. Cc1nc2cc(COC(=O)NC3CCC(C(C)(C)C)CC3)ccc2cc1C1CCC(=O)NC1=O (stereo not shown)
5. Cc1ccc(NC(=O)OCc2ccc3cc([C@H]4CCC(=O)NC4=O)c(C)nc3c2)cc1Cl
6. Cc1nc2cc(COC(=O)Nc3ccc4c(c3)OCCO4)ccc2cc1C1CCC(=O)NC1=O (stereo not shown)

> 6.30
< 6.00
6.00 to 6.30
6.00 to 6.30
6.00 to 6.30
< 6.00

* * *

# system: CRBN/DDB1 protein complex (Homo sapiens, UniProt Q96SW2)
# test-details: CRBN displacement TR-FRET assay
# test-settings: Thalidomide-Red tracer, 6×His-CRBN/DDB1; read-out: CRBN binding Ki
Exercise: for every item that follows, state its recorded Ki.

Below are worked cases with known answers.
{"molecule": "Cc1ccc(NC(=O)C(C)Oc2ccc3cc(C4CCC(=O)NC4=O)c(C)nc3c2)cc1Cl (stereo not shown) [Compound 34]", "Ki": "500 to 1000 nM"}
{"molecule": "Cc1nc2cc(COC(=O)Nc3cccc(C(C)(C)C)c3)ccc2cc1C1CCC(=O)NC1=O (stereo not shown) [Compound 9]", "Ki": "> 1000 nM"}
{"molecule": "Cc1ccc(NC(=O)OCc2ccc3cc([C@@H]4CCC(=O)NC4=O)c(C)nc3c2)cc1Cl [Compound 38]", "Ki": "> 1000 nM"}

Then there is this molecule:
# Ki (molecule: Cc1nc2cc(COC(=O)Nc3cc(C(F)(F)F)no3)ccc2cc1C1CCC(=O)NC1=O (stereo not shown) [Compound 71] ) is > 1000 nM

* * *

# system: [IKZF2 ZF2]-[compound]-[CRBN/DDB1] ternary complex (Homo sapiens, UniProt Q96SW2+Q9UKS7)
# Construct: IKZF2 ZF2
# Sequence (Q9UKS7 140-162 limits assumed): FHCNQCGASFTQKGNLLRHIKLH
# Sequence (Q96SW2 whole entry): as the sequence (Q96SW2 whole entry) above
# Sequence (Q16531 whole entry partner): as the sequence (Q16531 whole entry partner) above
# test-details: AlphaLISA assay for off-target recruitment detection, IKZF2 ZF2
# Assay type: binding
# test-settings: 1 μM compound; normalized to Helios modulator; read-out: Normalized ternary complex response, IKZF2 ZF2
recorded-metric: activation at 1 µM

Below are worked cases with known answers.
{"compound": "Cc1ccc(NC(=O)OCc2cc3nc(C)c(C4CCC(=O)NC4=O)cc3cc2C)cc1Cl (centres unmarked) [Compound 68]", "recorded-value": "< 10%"}
{"compound": "Cc1ccc(NC(=O)OCc2ccc3cc([C@@H]4CCC(=O)NC4=O)c(C)nc3c2)cc1Cl [Compound 38]", "recorded-value": "< 10%"}
{"compound": "Cc1ccc(NC(=S)NCc2ccc3cc(C4CCC(=O)NC4=O)c(C)nc3c2)cc1Cl (centres unmarked) [Compound 2]", "recorded-value": "< 10%"}

Here are 2 compounds. What values of activation at 1 µM were reported for them?
1. Cc1nc2ccc(COC(=O)Nc3cc(OC(F)(F)F)ccc3F)cc2cc1C1CCC(=O)NC1=O (centres unmarked) [Compound 7]
2. Cc1nc2cc(COC(=O)Nc3cccc(OC(F)(F)F)c3)ccc2cc1C1CCC(=O)NC1=O (centres unmarked) [Compound 19]

1: < 10%; 2: < 10%

Here are 8 compounds. What values of activation at 1 µM were reported for them?
1. Cc1nc2ccc(COC(=O)NC3CCCCC3)cc2cc1N1CCC(=O)NC1=O [Compound 60]
2. Cc1nc2ccc(CNC(=O)C(=O)N3CCC(C(C)(C)C)CC3)cc2cc1C1CCC(=O)NC1=O (centres unmarked) [Compound 23]
3. Cc1nc2cc(COC(=O)Nc3ccc(N4CCOCC4)nc3)ccc2cc1C1CCC(=O)NC1=O (centres unmarked) [Compound 42]
4. COc1ccc(NC(=O)OCc2ccc3cc(C4CCC(=O)NC4=O)c(C)nc3c2)cc1Cl (centres unmarked) [Compound 11]
5. Cc1ncc(NC(=O)OCc2ccc3cc(C4CCC(=O)NC4=O)c(C)nc3c2)cc1Cl (centres unmarked) [Compound 58]
6. Cc1ccc(NC(=O)OCc2ccc3cc(C4CCC(=O)NC4=O)c(C)nc3c2)c(Cl)c1Cl (centres unmarked) [Compound 54]
7. Cc1ccc(NC(=O)OCc2ccc3cc(C4(F)CCC(=O)NC4=O)c(C)nc3c2)cc1Cl (centres unmarked) [Compound 74]
8. Cc1nc2cc(COC(=O)Nc3cc(Cl)c(C)c(CN4CCOCC4)c3)ccc2cc1C1CCC(=O)NC1=O (centres unmarked) [Compound 17]

["< 10%", "< 10%", "< 10%", "< 10%", "< 10%", "< 10%", "< 10%", "< 10%"]

Here are 2 compounds. What values of activation at 1 µM were reported for them?
1. [2H]C([2H])(OC(=O)Nc1cc(C(C)(C)C)no1)c1ccc2cc(C3CCC(=O)NC3=O)c(C)nc2c1 (centres unmarked) [Compound 82]
2. Cc1ccc(NC(=O)OCc2ccc3cc([C@H]4CCC(=O)NC4=O)c(C)nc3c2)cc1Cl [Compound 39]

1. < 10%
2. < 10%

Here are 5 compounds. What values of activation at 1 µM were reported for them?
1. Cc1nc2cc(COC(=O)Nc3cccc(-c4ccccc4)c3)ccc2cc1C1CCC(=O)NC1=O (centres unmarked) [Compound 46]
2. Cc1nc2cc(CNC(=O)Nc3cc(C(C)(C)C)no3)ccc2cc1N1CCC(=O)NC1=O [Compound 64]
3. Cc1nc2cc(COC(=O)NC3CCC(C(C)(C)C)CC3)ccc2cc1C1CCC(=O)NC1=O (centres unmarked) [Compound 55]
4. Cc1nc2cc(COC(=O)Nc3cccc(C(C)(C)C)c3)ccc2cc1C1CCC(=O)NC1=O (centres unmarked) [Compound 9]
5. Cc1nc2cc(COC(=O)Nc3cc(C4(C(F)(F)F)CC4)no3)ccc2cc1C1CCC(=O)NC1=O (centres unmarked) [Compound 81]

1. < 10%
2. < 10%
3. < 10%
4. < 10%
5. < 10%

Here are 5 compounds. What values of activation at 1 µM were reported for them?
1. Cc1nc2cc(COC(=O)Nc3ccc(Cl)c(Cl)c3)ccc2cc1C1CCC(=O)NC1=O (centres unmarked) [Compound 12]
2. Cc1ccc(NC(=O)NCc2ccc3nc(C)c(N4CCC(=O)NC4=O)cc3c2)cc1Cl [Compound 51]
3. Cc1nc2cc(COC(=O)Nc3csc(-c4ccccc4)c3)ccc2cc1C1CCC(=O)NC1=O (centres unmarked) [Compound 37]
4. Cc1nc2ccc(COC(=O)Nc3cc(C(C)(C)C)no3)cc2cc1N1CCC(=O)NC1=O [Compound 66]
5. Cc1nc2cc(COC(=O)Nc3nc(C(C)(C)C)no3)ccc2cc1C1CCC(=O)NC1=O (centres unmarked) [Compound 80]

1. < 10%
2. 10 to 25%
3. < 10%
4. 10 to 25%
5. < 10%

Here are 7 compounds. What values of activation at 1 µM were reported for them?
1. Cc1ccc(NC(=O)OCc2cc3nc(C)c(C4CCC(=O)NC4=O)cc3cc2F)cc1Cl (centres unmarked) [Compound 49]
2. Cc1nc2cc(COC(=O)Nc3cc(C(C)(C)C)no3)ccc2cc1N1CCC(=O)NC1=O [Compound 72]
3. Cc1ccc(NC(=O)OCc2ccc3cc(C4CCC(=O)NC4=O)c(C)nc3c2)cc1Cl (centres unmarked) [Compound 4]
4. Cc1nc2ccc(CNC(=O)NC3CCCCC3)cc2cc1N1CCC(=O)NC1=O [Compound 52]
5. Cc1ccc(-c2nnc(NCc3ccc4cc(C5CCC(=O)NC5=O)c(C)nc4c3)o2)cc1Cl (centres unmarked) [Compound 13]
6. Cc1nc2cc(COC(=O)Nc3cc(C(C)(C)C)on3)ccc2cc1C1CCC(=O)NC1=O (centres unmarked) [Compound 70]
7. Cc1ccc(NC(=O)OCc2cc(F)c3cc(C4CCC(=O)NC4=O)c(C)nc3c2)cc1Cl (centres unmarked) [Compound 22]

1: < 10%; 2: < 10%; 3: < 10%; 4: 10 to 25%; 5: < 10%; 6: < 10%; 7: < 10%
